test_system: T1, UNK ZnF1-3 (human, UniProt Q9C0B0 31-174)
T1 sequence: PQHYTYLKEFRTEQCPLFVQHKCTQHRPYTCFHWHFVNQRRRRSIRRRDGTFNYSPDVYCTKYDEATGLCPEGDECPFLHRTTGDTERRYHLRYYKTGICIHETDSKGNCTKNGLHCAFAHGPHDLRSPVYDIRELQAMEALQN
assay_remarks: nsRBNS (natural sequence RNA bind-n-seq); RBNS binding buffer (assumed for nsRBNS): 25 mM Tris pH 7.5, 150 mM KCl, 3 mM MgCl2, 0.01% Triton X-100, 500 ug/ml BSA, 20 U/ml SUPERase-In, 4 C; UNK is unkempt and MSI1 is Musashi-1; names of the RNAs are library labels; protein concentration not given here; high values mean tight binding
In all, about 24,000 sequences were measured (“enrichment r”: median about 0.99, highest 2% from about 3.7 on). The full list was thinned out, with the highest values kept by preference.
readout_name: binding signal (enrichment R)
Form entry: value (enrichment R) — number only.

The cases that follow already have their binding signal on record.
binder	observed
98346538_98346658_211_5pUTR_ENSG00000077147_ENST00000371142|human|control|control (ssRNA) RNA: GGGAGUUCUACAGUCCGACGAUCCAGCCACAGCGCGGCGGCCGCCGCCACGCCAAGAGCGCCAGGCAGCGGCCUCAUCCUCCGCGCCCCUCCGGCCCGGAGCCGGCUCACCGACUCCUCCUCCCGCCGCCGCCUCCUCCGCCGCAACAGAGGAUUGAGCAUCA	5.42
chr9:127920631:127920632:-_ENSG00000119414_ENST00000456642|hu_mus|motif|central (ssRNA) RNA: GGGAGUUCUACAGUCCGACGAUCAAUACGGUCAGGCCACUUAGCCUUUAGUGCAAGAAGAUAAGUGAAGGUCUCCAAACGGUAGUAACCUCUGUCUACAAAAUCACCCAUAAAUAUGUAGUUUGUGUCAGGAACCUGACCUCCCAACAGAGGAUUGAGCAUCA	0.995
chr3:120321071:120321072:+_ENSG00000065518_ENST00000184266|hu_hu|FALSE|FALSE (ssRNA) RNA: GGGAGUUCUACAGUCCGACGAUCUCAUUGCCAGACUUAAUAUGAGAGGUGAAAUGUUCGAUCCAAUUUUCCUUCCUGGAUAAGUUUUUCUUUCCUAUCCCUCUCAGUUUUGAUAAUAUAAUAAAUGAAGAUGAGGGGCCCAAACAACAGAGGAUUGAGCAUCA	2.02
132387670_132387790_77_5pUTR_ENSG00000170606_ENST00000304858|human|control|control (ssRNA) RNA: GGGAGUUCUACAGUCCGACGAUCGGUACUGCAACCGAGAGCGCUGCUCAGGCCGGCUCCGGCUCAGUGGCCGCAGAGGAGGCGCCGGUAGCGGGGGCGGAGAAGAUCUCGAAAGAUCUCGUUGCGACGAGAGCGGAGCCGCAGCAACAGAGGAUUGAGCAUCA	1.09
chr11:46405157:46405158:+_ENSG00000110492_ENST00000395566|hu_hu|hu_hu_hu_mus_False|8_58 (ssRNA) RNA: GGGAGUUCUACAGUCCGACGAUCCCCUCCCCACUUUGGGCACUUGGUGUGGGCGUGAGAGGACAGGCGUGAUUGACAAAGCUAACGGGAAGACAAAAGGCACUGGUGGGUUAUAUCUUGGGCCUGUGAGAGGGAGGGGCUCCGCAACAGAGGAUUGAGCAUCA	3.13

Task item: Tell me binding signal reported for chr7:138235809:138235810:+_ENSG00000122779_ENST00000415680|hu_mus|FALSE|FALSE (ssRNA) RNA: GGGAGUUCUACAGUCCGACGAUCAGAAGCAUCACACCUUGCACGAAGAAGGUGCCGUAACCUGUAUGUAAUCAGCCGCUUGCUGUACAGCAAGGCUGUGCUGCUGCCACUGGAAACAGCCCAUUUAGAAAAAUGCAUGACGUGCAACAGAGGAUUGAGCAUCA
Reply: 0.971

Task item: Supply reported binding signal belonging to this binder: chr1:133829981:133829982:+_ENSMUSG00000026434_ENSMUST00000062264|mus_hu|FALSE|FALSE (ssRNA) RNA: GGGAGUUCUACAGUCCGACGAUCUAUCAGAAAUAUAGAAUACAUUUUUCAAUCUAAUGAAUUAAUUUUAAAAGGGACCCUAAACAAGAAGCCCAAUCAAAUGCACACAAGUAAUCUAGAAGACAUGAUUACCUCUAAAAUAUGCAACAGAGGAUUGAGCAUCA
Reply: 4.97

Task item: Identify measured binding signal corresponding to chr2:180329438:180329439:+_ENSMUSG00000049401_ENSMUST00000029087|mus_hu|FALSE|FALSE (ssRNA) RNA: GGGAGUUCUACAGUCCGACGAUCCUCUGAGGCACUCUGAGGGCCUGGCUCUGUGGGCGGCUGCUCCCGCCGGCUCAGCUCCAGCUUCCUCUUCUUGCUCUCUUUGGGGCUUAAGGGCUCCGGCCUAUCUUCCCCGUGGCCCCCCAACAGAGGAUUGAGCAUCA
Reply: 0.81

Task item: State its binding signal for this binder: chr2:168997265:168997266:-_ENSG00000198648_ENST00000355999|hu_mus|motif|central (ssRNA) RNA: GGGAGUUCUACAGUCCGACGAUCUUUAUUCCGUGUAACAUCACCCCCUGUGGCUAAGAAUGCGCUUACUCCAAAAUCUGCGGUUUGUACUGAGCCAUCCUCACCCAGAAGAAUAUUUCCAGCUUUCAAAUCCCUAUGGAUCUGCAACAGAGGAUUGAGCAUCA
Reply: 0.927

Task item: // Input: chr3:67279072:67279073:+_ENSMUSG00000027774_ENSMUST00000077271|mus_mus|FALSE|FALSE (ssRNA) RNA: GGGAGUUCUACAGUCCGACGAUCUGCCCAGAAUCCUACCUCUUGAUGAGAGGACUGUGAGUUUUGAGGCCAACAGGGGCUAUAUACACACAGCCCUUAUGUCCAAAAAAAAAAAAAGCAGUGAAGUAAAUUUAUAUAUAUUUUCAACAGAGGAUUGAGCAUCA . Output its binding signal only.
Reply: 4.32

Task item: Provide binding signal value for the following binder: chr16:45382771:45382772:-_ENSMUSG00000022661_ENSMUST00000163230|mus_mus|mus_mus_mus_hu_True|1_78 (ssRNA) RNA: GGGAGUUCUACAGUCCGACGAUCCUGGGUCAUGUUAUAAGACAAAUGGACAGGGAGAGCAUGCUUUUCAAAAAAUGUGAGCUAUUGUCUAAGACUAACAAUAUUUAUCUAGCUAUAAAAAUAAGUUAAAUGAAUAAACAUUACCAACAGAGGAUUGAGCAUCA
Reply: 4.46

Task item: Find the measured binding signal of 86322860_86322980_198_3pUTR_ENSG00000135018_ENST00000376395|human|control|control (ssRNA) RNA: GGGAGUUCUACAGUCCGACGAUCCUUCCUCCUCCCUGCCCCUUCCCCCACGUCCCUUCGCCGGCGCCGCGCGGAGCACGCCGGGUAACGCGCCUGGCGGCGUCGCCGAGUCAUCCCCGGCUGGCGCGACUUUGAGCUCAGCCUCAACAGAGGAUUGAGCAUCA and report it.
Reply: 0.759

Task item: Could you please provide reported binding signal for chr2:203071746:203071747:-_ENSG00000116030_ENST00000392246|hu_hu|FALSE|FALSE (ssRNA) RNA: GGGAGUUCUACAGUCCGACGAUCCACCACAAGCCUGAAAAUGCAAUGUCCUGAAAAAGGUGACCUCUCUGUGCACACGUAAUUUUUAAAAAGGAGAGGGUAAUAUGAAGGGGACUGAGGCUUGAUCACCAAAAAUCAGCACAACAACAGAGGAUUGAGCAUCA ? Thanks!
Reply: 3.8
